- EXPERIMENTAL_TARGET: rat sucrase (partially purified alpha-glucosidase from intestinal rat powder) (Rattus norvegicus)
API: label(entry) gives class 1 if the entry's IC50 is strictly smaller than 200 nM; on equality or larger values it gives class 0.

{"COMPOUND": "O=[N+]([O-])c1cc(N2CC3CC2CO3)ccc1NCc1ccc(CN2C[C@@H](O)[C@H](O)[C@@H](O)[C@@H]2CO)cc1 (stereo in doubt)", "CLASS_NAME": "class 1"}
{"COMPOUND": "COc1ccc(-c2ccc(CN3C[C@H](O)[C@@H](O)[C@H](O)[C@H]3CO)cc2)cc1", "CLASS_NAME": "class 1"}
{"COMPOUND": "CS(=O)(=O)c1cc(NCc2ccc(CN3C[C@H](O)[C@@H](O)[C@H](O)[C@H]3CO)cc2)cc(-c2cccnn2)c1", "CLASS_NAME": "class 1"}
{"COMPOUND": "[N-]=[N+]=Nc1ccc(NCCc2ccc(CCN3C[C@@H](O)[C@H](O)[C@@H](O)[C@@H]3CO)c3ccccc23)c([N+](=O)[O-])c1 (stereo in doubt)", "CLASS_NAME": "class 0"}
{"COMPOUND": "[N-]=[N+]=Nc1ccc(NCCc2cc(CCN3C[C@H](O)[C@@H](O)[C@H](O)[C@H]3CO)cs2)c([N+](=O)[O-])c1", "CLASS_NAME": "class 1"}
{"COMPOUND": "COc1cc(CC2CCOC2)cc(NCCCCCCN2C[C@H](O)[C@@H](O)[C@H](O)[C@H]2CO)c1 (stereo partly drawn)", "CLASS_NAME": "class 0"}

* * *

- EXPERIMENTAL_TARGET: rat sucrase (partially purified alpha-glucosidase from intestinal rat powder) (Rattus norvegicus, UniProt P23739)
- Sequence (P23739 whole entry): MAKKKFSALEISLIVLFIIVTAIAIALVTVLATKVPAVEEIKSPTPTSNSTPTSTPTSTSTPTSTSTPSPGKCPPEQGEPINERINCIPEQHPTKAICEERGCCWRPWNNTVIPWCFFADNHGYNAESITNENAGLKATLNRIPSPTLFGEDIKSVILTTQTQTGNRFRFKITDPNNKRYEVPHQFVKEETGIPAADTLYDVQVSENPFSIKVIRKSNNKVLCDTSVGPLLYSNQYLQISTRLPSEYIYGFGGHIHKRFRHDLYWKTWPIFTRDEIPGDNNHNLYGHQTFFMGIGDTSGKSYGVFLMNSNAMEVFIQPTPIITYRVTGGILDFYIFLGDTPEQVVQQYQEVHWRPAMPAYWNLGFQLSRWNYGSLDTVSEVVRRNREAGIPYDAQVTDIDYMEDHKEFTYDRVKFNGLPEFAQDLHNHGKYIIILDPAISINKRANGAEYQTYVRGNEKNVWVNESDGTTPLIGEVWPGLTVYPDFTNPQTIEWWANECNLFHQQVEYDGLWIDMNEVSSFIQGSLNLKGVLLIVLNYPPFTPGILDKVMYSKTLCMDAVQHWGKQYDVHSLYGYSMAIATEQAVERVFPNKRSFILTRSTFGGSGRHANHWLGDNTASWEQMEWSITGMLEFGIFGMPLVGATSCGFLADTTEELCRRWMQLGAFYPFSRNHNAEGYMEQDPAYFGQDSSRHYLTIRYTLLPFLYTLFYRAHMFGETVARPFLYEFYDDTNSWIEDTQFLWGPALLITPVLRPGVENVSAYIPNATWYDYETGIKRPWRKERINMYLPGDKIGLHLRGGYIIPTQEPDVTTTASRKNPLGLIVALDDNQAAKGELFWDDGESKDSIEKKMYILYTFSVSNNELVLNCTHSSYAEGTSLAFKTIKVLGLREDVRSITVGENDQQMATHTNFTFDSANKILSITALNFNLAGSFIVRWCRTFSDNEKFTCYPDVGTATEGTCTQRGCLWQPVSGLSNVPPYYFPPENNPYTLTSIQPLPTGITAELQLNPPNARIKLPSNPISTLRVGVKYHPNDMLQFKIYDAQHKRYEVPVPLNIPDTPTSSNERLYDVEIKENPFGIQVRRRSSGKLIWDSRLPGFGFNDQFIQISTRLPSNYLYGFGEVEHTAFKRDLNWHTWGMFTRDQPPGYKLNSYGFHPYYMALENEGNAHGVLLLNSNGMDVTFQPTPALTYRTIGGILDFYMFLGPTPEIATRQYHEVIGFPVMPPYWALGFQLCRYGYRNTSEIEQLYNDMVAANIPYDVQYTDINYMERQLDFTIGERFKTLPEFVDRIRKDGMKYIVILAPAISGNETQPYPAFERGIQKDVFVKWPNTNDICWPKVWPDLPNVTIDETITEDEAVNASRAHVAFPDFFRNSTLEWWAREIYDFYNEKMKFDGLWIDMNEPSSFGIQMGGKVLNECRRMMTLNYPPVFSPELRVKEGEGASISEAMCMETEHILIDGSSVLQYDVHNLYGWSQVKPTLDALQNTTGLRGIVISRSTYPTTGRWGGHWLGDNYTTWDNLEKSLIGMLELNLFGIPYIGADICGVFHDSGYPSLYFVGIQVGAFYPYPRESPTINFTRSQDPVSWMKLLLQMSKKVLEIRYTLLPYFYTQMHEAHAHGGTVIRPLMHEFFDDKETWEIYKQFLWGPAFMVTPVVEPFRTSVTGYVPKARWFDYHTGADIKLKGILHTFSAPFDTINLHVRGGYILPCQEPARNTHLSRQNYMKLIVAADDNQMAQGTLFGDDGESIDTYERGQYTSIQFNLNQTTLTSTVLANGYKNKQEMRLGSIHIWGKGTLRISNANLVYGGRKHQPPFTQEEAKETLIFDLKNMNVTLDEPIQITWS
pIC50: −log10 of the molar value.
Assign satisfied whenever pIC50 does not fall below 7; assign not satisfied whenever it does.

{"COMPOUND": "O=[N+]([O-])c1cc(-c2cccnn2)ccc1NCc1cccc(CN2C[C@H](O)[C@@H](O)[C@H](O)[C@H]2CO)c1 [Compound 1089]", "CLASS_NAME": "satisfied"}
{"COMPOUND": "COc1cc(Cc2ccccc2)cc(NCCCCCCN2C[C@H](O)[C@@H](O)[C@H](O)[C@H]2CO)c1 [Compound 1145]", "CLASS_NAME": "satisfied"}
{"COMPOUND": "NC(=O)CCN(CCNc1ccc(-c2ncccn2)cc1[N+](=O)[O-])CCN1C[C@H](O)[C@@H](O)[C@H](O)[C@H]1CO [Compound 1226]", "CLASS_NAME": "not satisfied"}
{"COMPOUND": "[N-]=[N+]=Nc1ccc(NCCNC(=O)NCCN2C[C@H](O)[C@@H](O)[C@H](O)[C@H]2CO)c([N+](=O)[O-])c1 [Compound 1276]", "CLASS_NAME": "not satisfied"}
{"COMPOUND": "N#Cc1cc(NCc2cccc(CN3C[C@H](O)[C@@H](O)[C@H](O)[C@H]3CO)c2)cc(-c2ncccn2)c1 [Compound 1047]", "CLASS_NAME": "satisfied"}
{"COMPOUND": "N#Cc1ccc(F)cc1NCCCCCCN1C[C@H](O)[C@@H](O)[C@H](O)[C@H]1CO [Compound 1251]", "CLASS_NAME": "satisfied"}
{"COMPOUND": "N#Cc1cc(Cl)cc(NCCc2ccc(CCN3C[C@H](O)[C@@H](O)[C@H](O)[C@H]3CO)cc2)c1 [Compound 1134]", "CLASS_NAME": "not satisfied"}
{"COMPOUND": "O=[N+]([O-])c1cc(Br)ccc1NCc1cccc(CN2C[C@H](O)[C@@H](O)[C@H](O)[C@H]2CO)c1 [Compound 1029]", "CLASS_NAME": "satisfied"}
{"COMPOUND": "O=[N+]([O-])c1cc(C2CC2)ccc1NCCCCCCN1C[C@H](O)[C@@H](O)[C@H](O)[C@H]1CO [Compound 1136]", "CLASS_NAME": "satisfied"}
{"COMPOUND": "CN(C)Cc1ccc(NCCCCCCN2C[C@H](O)[C@@H](O)[C@H](O)[C@H]2CO)c(C(F)(F)F)c1 [Compound 1259]", "CLASS_NAME": "not satisfied"}
{"COMPOUND": "Cc1cc(NCc2cccc(CN3C[C@H](O)[C@@H](O)[C@H](O)[C@H]3CO)c2)cc(-c2ncccn2)c1 [Compound 1035]", "CLASS_NAME": "satisfied"}
{"COMPOUND": "COCCc1ccc(CCCN2C[C@H](O)[C@@H](O)[C@H](O)[C@H]2CO)cc1 [Compound 1308]", "CLASS_NAME": "not satisfied"}
{"COMPOUND": "CS(C)=NS(=O)(=O)c1cc(-c2ncccn2)ccc1NCCCCCCN1C[C@H](O)[C@@H](O)[C@H](O)[C@H]1CO [Compound 1247]", "CLASS_NAME": "not satisfied"}
{"COMPOUND": "OC[C@@H]1[C@@H](O)[C@H](O)[C@@H](O)CN1Cc1cccc(CNc2ccc(-c3cccnn3)cc2)c1 [Compound 1083]", "CLASS_NAME": "satisfied"}
{"COMPOUND": "N#Cc1cc(NCc2ccc(CN3C[C@H](O)[C@@H](O)[C@H](O)[C@H]3CO)cc2)cc(C2=COCCO2)c1 [Compound 1062]", "CLASS_NAME": "satisfied"}
{"COMPOUND": "[N-]=[N+]=Nc1ccc(NCCc2cc(CCN3C[C@H](O)[C@@H](O)[C@H](O)[C@H]3CO)cc(C3CCCCC3)c2)c([N+](=O)[O-])c1 [Compound 1115]", "CLASS_NAME": "not satisfied"}
{"COMPOUND": "[N-]=[N+]=Nc1ccc(NCCC(O)C(O)CCN2C[C@H](O)[C@@H](O)[C@H](O)[C@H]2CO)c([N+](=O)[O-])c1 (stereo partly drawn) [Compound 1270]", "CLASS_NAME": "not satisfied"}
{"COMPOUND": "COc1cc(NCCCCCCN2C[C@H](O)[C@@H](O)[C@H](O)[C@H]2CO)cc(C2CCCCC2)c1 [Compound 1148]", "CLASS_NAME": "satisfied"}
{"COMPOUND": "O=[N+]([O-])c1cc(-c2ccccc2)ccc1NCCCCCCN1C[C@H](O)[C@@H](O)[C@H](O)[C@H]1CO [Compound 1138]", "CLASS_NAME": "satisfied"}

* * *

Entries annotated with measured pIC50
- EXPERIMENTAL_TARGET: recombinant alpha-glucosidase II (murine full-length glucosidase II, alpha and beta subunits, Glu 2) (Mus musculus)
- Construct: made in house; host or cells: HEK-293T cells transduced with BacMam viruses (75% alpha, 25% beta); protein harvested from culture supernatant
- Sequence (O08795 15-521): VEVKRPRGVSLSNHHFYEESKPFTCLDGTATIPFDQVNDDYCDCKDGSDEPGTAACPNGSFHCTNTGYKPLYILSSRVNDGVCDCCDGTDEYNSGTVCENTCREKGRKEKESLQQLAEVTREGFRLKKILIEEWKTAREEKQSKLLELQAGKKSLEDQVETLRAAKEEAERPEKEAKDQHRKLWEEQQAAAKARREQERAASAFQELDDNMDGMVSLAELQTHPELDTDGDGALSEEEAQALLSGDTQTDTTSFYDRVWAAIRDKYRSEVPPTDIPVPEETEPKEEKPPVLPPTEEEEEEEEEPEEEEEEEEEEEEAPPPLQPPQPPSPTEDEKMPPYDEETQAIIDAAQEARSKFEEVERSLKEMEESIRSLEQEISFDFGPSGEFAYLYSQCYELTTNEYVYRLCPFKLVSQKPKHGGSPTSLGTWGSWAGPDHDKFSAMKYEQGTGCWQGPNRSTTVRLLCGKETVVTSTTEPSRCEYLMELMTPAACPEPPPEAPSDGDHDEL
- Sequence (Q8BHN3 33-944): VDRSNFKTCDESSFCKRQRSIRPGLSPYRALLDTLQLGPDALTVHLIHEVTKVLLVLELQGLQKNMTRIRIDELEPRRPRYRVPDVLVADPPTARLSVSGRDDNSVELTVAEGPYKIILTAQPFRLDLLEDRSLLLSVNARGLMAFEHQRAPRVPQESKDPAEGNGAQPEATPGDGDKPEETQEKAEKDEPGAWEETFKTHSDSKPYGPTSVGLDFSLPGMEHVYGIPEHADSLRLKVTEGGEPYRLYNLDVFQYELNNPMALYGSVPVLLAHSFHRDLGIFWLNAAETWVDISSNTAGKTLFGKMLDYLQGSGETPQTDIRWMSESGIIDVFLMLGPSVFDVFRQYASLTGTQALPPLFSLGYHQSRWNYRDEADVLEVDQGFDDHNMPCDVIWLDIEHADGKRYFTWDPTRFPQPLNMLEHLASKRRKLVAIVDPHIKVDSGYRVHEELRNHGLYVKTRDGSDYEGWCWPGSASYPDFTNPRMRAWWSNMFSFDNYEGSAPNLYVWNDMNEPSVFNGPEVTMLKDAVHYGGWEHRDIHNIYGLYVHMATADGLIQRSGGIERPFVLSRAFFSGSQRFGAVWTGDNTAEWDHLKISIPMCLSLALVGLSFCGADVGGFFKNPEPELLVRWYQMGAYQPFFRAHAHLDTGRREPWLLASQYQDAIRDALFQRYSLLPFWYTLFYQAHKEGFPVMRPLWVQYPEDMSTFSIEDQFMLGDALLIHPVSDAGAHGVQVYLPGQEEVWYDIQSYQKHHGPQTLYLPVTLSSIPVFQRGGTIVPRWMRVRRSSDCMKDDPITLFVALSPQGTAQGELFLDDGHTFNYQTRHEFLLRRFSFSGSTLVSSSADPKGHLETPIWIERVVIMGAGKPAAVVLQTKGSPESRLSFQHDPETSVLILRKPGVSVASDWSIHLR
- EXPERIMENTAL_DETAILS: Alpha-glucosidase II assay (4-methylumbelliferyl-alpha-D-pyranoside substrate, fluorescence)
- Type: biochemical
pIC50: −log10 of the molar value.

{"COMPOUND": "[N-]=[N+]=Nc1ccc(NCC/C=C/CCN2C[C@H](O)[C@@H](O)[C@H](O)[C@H]2CO)c([N+](=O)[O-])c1", "LIMIT_SIGN": "=", "pIC50": 7.82}
{"COMPOUND": "O=[N+]([O-])c1cc(N2C3CCC2COC3)ccc1NCc1ccc(CN2CC(O)C(O)C(O)C2CO)cc1 (stereo in doubt)", "LIMIT_SIGN": ">", "pIC50": 9.00}
{"COMPOUND": "Cc1cc(NCc2cccc(CN3C[C@H](O)[C@@H](O)[C@H](O)[C@H]3CO)n2)cc(-c2ccc[nH]2)c1", "LIMIT_SIGN": "<", "pIC50": 4.00}
{"COMPOUND": "OC[C@@H]1[C@@H](O)[C@H](O)[C@@H](O)CN1CCc1ccc(CCNc2cc(Cl)cc(-c3ncon3)c2)cc1", "LIMIT_SIGN": "=", "pIC50": 6.53}
{"COMPOUND": "O=[N+]([O-])c1cc(-c2ccccc2)ccc1NCCCCCCN1C[C@H](O)[C@@H](O)[C@H](O)[C@H]1CO", "LIMIT_SIGN": "=", "pIC50": 8.70}
{"COMPOUND": "CS(=O)(=O)c1cc(NCc2cccc(CN3C[C@H](O)[C@@H](O)[C@H](O)[C@H]3CO)c2)cc(-c2cccnn2)c1", "LIMIT_SIGN": "=", "pIC50": 5.34}

* * *

Entries annotated with measured pIC50
- EXPERIMENTAL_TARGET: rat maltase (partially purified alpha-glucosidase from intestinal rat powder)
- EXPERIMENTAL_DETAILS: Intestinal alpha-glucosidase assay, maltose substrate (Glucose GO Kit)
pIC50: −log10 of the molar value.

{"COMPOUND_STRUCTURE_STRING": "[N-]=[N+]=Nc1ccc(NCCc2cccc(CCN3C[C@H](O)[C@@H](O)[C@H](O)[C@H]3CO)c2)c([N+](=O)[O-])c1", "LIMIT_SIGN": "=", "pIC50": 6.15}
{"COMPOUND_STRUCTURE_STRING": "COc1cc(-c2ncccn2)ccc1NCCCCCCN1C[C@H](O)[C@@H](O)[C@H](O)[C@H]1CO", "LIMIT_SIGN": "=", "pIC50": 7.52}
{"COMPOUND_STRUCTURE_STRING": "N#Cc1cc(Br)cc(NCc2cccc(CN3C[C@H](O)[C@@H](O)[C@H](O)[C@H]3CO)c2)c1", "LIMIT_SIGN": "=", "pIC50": 7.52}
{"COMPOUND_STRUCTURE_STRING": "[N-]=[N+]=Nc1ccc(NCCNC(=O)NCCN2C[C@H](O)[C@@H](O)[C@H](O)[C@H]2CO)c([N+](=O)[O-])c1", "LIMIT_SIGN": "=", "pIC50": 7.31}
{"COMPOUND_STRUCTURE_STRING": "CS(=O)(=O)c1cc(Br)cc(NCc2ccc(CN3C[C@H](O)[C@@H](O)[C@H](O)[C@H]3CO)cc2)c1", "LIMIT_SIGN": "=", "pIC50": 8.40}
{"COMPOUND_STRUCTURE_STRING": "OC[C@@H]1[C@@H](O)[C@H](O)[C@@H](O)CN1Cc1cccc(CNc2cc(-c3ncccn3)cc(C3CC3)c2)n1", "LIMIT_SIGN": "=", "pIC50": 6.07}
{"COMPOUND_STRUCTURE_STRING": "OC[C@@H]1[C@@H](O)[C@H](O)[C@@H](O)CN1CCCCCCNc1ccc(-c2ncco2)cc1Cl", "LIMIT_SIGN": ">", "pIC50": 9.00}
{"COMPOUND_STRUCTURE_STRING": "Cc1cc(NCc2ccc(CN3C[C@H](O)[C@@H](O)[C@H](O)[C@H]3CO)cc2)cc(-c2cccnn2)c1", "LIMIT_SIGN": "=", "pIC50": 7.85}
{"COMPOUND_STRUCTURE_STRING": "CS(=O)(=O)Nc1ccc(NCCCCCCN2C[C@H](O)[C@@H](O)[C@H](O)[C@H]2CO)c([N+](=O)[O-])c1", "LIMIT_SIGN": ">", "pIC50": 8.00}
{"COMPOUND_STRUCTURE_STRING": "[N-]=[N+]=Nc1ccc(NCCn2cc(CCN3C[C@H](O)[C@@H](O)[C@H](O)[C@H]3CO)c3ccccc32)c([N+](=O)[O-])c1", "LIMIT_SIGN": "=", "pIC50": 7.49}
{"COMPOUND_STRUCTURE_STRING": "COc1ccc(CCCCCCCN2C[C@H](O)[C@@H](O)[C@H](O)[C@H]2CO)cc1", "LIMIT_SIGN": "=", "pIC50": 7.66}
{"COMPOUND_STRUCTURE_STRING": "O=[N+]([O-])c1cc(-c2ncco2)ccc1NCCc1ccc(CCN2C[C@H](O)[C@@H](O)[C@H](O)[C@H]2CO)cc1", "LIMIT_SIGN": "=", "pIC50": 9.00}
{"COMPOUND_STRUCTURE_STRING": "Cc1cc(NCc2cnc(CN3C[C@H](O)[C@@H](O)[C@H](O)[C@H]3CO)cn2)cc(N2CCOCC2)c1", "LIMIT_SIGN": "=", "pIC50": 6.24}
{"COMPOUND_STRUCTURE_STRING": "[N-]=[N+]=Nc1ccc(NCc2ccc(Cc3ccc(CN4C[C@H](O)[C@@H](O)[C@H](O)[C@H]4CO)cc3)cc2)c([N+](=O)[O-])c1", "LIMIT_SIGN": "=", "pIC50": 8.22}
